Here, each record is paired with measured T/C data.
- System: P388 leukemia ip, CD2F1 mice, survival T/C
- assayInfo: NCI In Vivo Anticancer Drug Screen. Data for tumor model P388 Leukemia (intraperitoneal) in CD2F1 (CDF1) mice
- appliedConditions: endpoint: median survival time; dose: 100.0 mg/kg/injection; schedule: Q04DX002 (ip); vehicle: Klucel (hydroxypropylcellulose) (HPC); higher = longer survival
Toxic doses and inconclusive results are not listed.

{"compound": "Cn1c2c(c3cc(Cl)ccc31)-c1ncncc1CC2", "outcomeMeasure": "T/C", "reportedValue": "92 % of control"}
{"compound": "Cc1nnc2sc(-c3cccc(Cl)c3)nn2c1=O", "outcomeMeasure": "T/C", "reportedValue": "100 % of control"}
{"compound": "Cc1ccc(N=S(C)C)cc1", "outcomeMeasure": "T/C", "reportedValue": "100 % of control"}
{"compound": "Cc1cc2ccccc2nc1-c1ccncc1", "outcomeMeasure": "T/C", "reportedValue": "101 % of control"}

Recorded T/C (compound O=C1/C(=C/N2CCN(c3ccccc3)CC2)Cc2c(Cl)cccc21 ): 105 % of control

Recorded T/C (compound CNc1cc(NC)c2c(c1N)C(=O)c1ccccc1C2=O ): 100 % of control

Recorded T/C (compound CN(O)C1(/C(N)=N/O)C(C2COC(C)(C)O2)OC2OC(C)(C)OC21 (stereo not drawn) ): 106 % of control

Recorded T/C (compound Nc1n[nH]c2c3c([nH]c(=O)c12)-c1ccccc1SC3 ): 102 % of control

Recorded T/C (compound Cc1ccc(N=Nc2c(C)nn(C(=S)S)c2C)cc1 ): 100 % of control

Recorded T/C (compound CCNC(=O)N(CC(=O)NC)c1ncc([N+](=O)[O-])s1 ): 103 % of control

---

- Test system: P388 leukemia ip, CD2F1 mice, survival T/C
- assayInfo: NCI In Vivo Anticancer Drug Screen. Data for tumor model P388 Leukemia (intraperitoneal) in CD2F1 (CDF1) mice
- appliedConditions: endpoint: median survival time; dose: 50.0 mg/kg/injection; schedule: Q01DX001 (ip); vehicle: Klucel (hydroxypropylcellulose) (HPC); higher = longer survival
Inconclusive results and toxic doses are left out.
Here, each record is paired with measured T/C data.

{"compound": "CC(=O)n1c(Cl)c(/C=N/Nc2ccccc2[N+](=O)[O-])c2ccccc21", "reportedValue": "99 % of control"}
{"compound": "[CH3][Sn]([CH3])([O]c1cccccc1=O)[O]c1cccccc1=O", "reportedValue": "99 % of control"}
{"compound": "CCCCCCCCCCCCC1=C(OC)C(NC(=O)CCCCCCCCCCC)=CC(=O)C1=O", "reportedValue": "92 % of control"}

Recorded T/C (compound CC1=C(/C=C/c2ccc(N(C)C)cc2)C(C)C(c2ccc(N(C)C)cc2)CC1=O (centres undefined) ): 94 % of control

---

Here, each record is paired with measured T/C data.
- System: P388 leukemia ip, CD2F1 mice, survival T/C
- assayInfo: NCI In Vivo Anticancer Drug Screen. Data for tumor model P388 Leukemia (intraperitoneal) in CD2F1 (CDF1) mice
- appliedConditions: endpoint: median survival time; dose: 60.0 mg/kg/injection; schedule: Q01DX005 (ip); vehicle: saline with Tween-80; higher = longer survival
Toxic doses and inconclusive results are not listed.

{"molecule": "CC(C)(C)c1cc(C(C)(C)C)c2ssnc1-2", "reportedValue": "89 % of control"}
{"molecule": "CSC(=NC(=O)c1c(Cl)cccc1Cl)SC", "reportedValue": "102 % of control"}
{"molecule": "N#CC(c1ccccc1)c1ccc2ccccc2n1 (stereo unspecified)", "reportedValue": "92 % of control"}
{"molecule": "CSc1nc(NC2OC(COC(C)=O)C(OC(C)=O)C(OC(C)=O)C2OC(C)=O)c(N=CC=Nc2c(NC3OC(COC(C)=O)C(OC(C)=O)C(OC(C)=O)C3OC(C)=O)nc(SC)[nH]c2=O)c(=O)[nH]1 (stereo unspecified)", "reportedValue": "89 % of control"}
{"molecule": "CC(=O)OCC(COC(C)=O)(CN1C(=O)c2ccccc2C1=O)CN1C(=O)c2ccccc2C1=O", "reportedValue": "100 % of control"}

COC(=O)c1cc2nc(C(C)C)n(Cc3ccccc3)c2cc1C(=O)OC on P388 leukemia ip, CD2F1 mice, survival T/C gives T/C = 92 % of control

---

- Tested on: P388 leukemia ip, CD2F1 mice, survival T/C
- assayInfo: NCI In Vivo Anticancer Drug Screen. Data for tumor model P388 Leukemia (intraperitoneal) in CD2F1 (CDF1) mice
- appliedConditions: endpoint: median survival time; dose: 60.0 mg/kg/injection; schedule: Q01DX005 (ip); vehicle: saline with Tween-80; higher = longer survival
Toxic doses and inconclusive results are not listed.
outcomeMeasure: T/C

Example entries begin here.
{"molecule": "Cc1nc2ccccc2nc1N1C(=O)c2ccccc2C1=O", "experimentalTarget": "P388 leukemia ip, CD2F1 mice, survival T/C", "reportedValue": "97 % of control"}
{"molecule": "CCN(CC)C(=O)c1cccc2c1OCO2", "experimentalTarget": "P388 leukemia ip, CD2F1 mice, survival T/C", "reportedValue": "94 % of control"}
{"molecule": "Cc1sc2ccccc2c(=O)c1CCl", "experimentalTarget": "P388 leukemia ip, CD2F1 mice, survival T/C", "reportedValue": "111 % of control"}
{"molecule": "CC(=O)c1c(C)[nH]c(-c2ccccc2)c1NS(=O)(=O)c1ccc(N)cc1", "experimentalTarget": "P388 leukemia ip, CD2F1 mice, survival T/C", "reportedValue": "98 % of control"}
{"molecule": "O=c1oc2ccccc2cc1-n1nnc2ccccc21", "experimentalTarget": "P388 leukemia ip, CD2F1 mice, survival T/C", "reportedValue": "98 % of control"}
{"molecule": "COC(=O)CN1C(=O)c2cccc3cc([N+](=O)[O-])cc(c23)C1=O", "experimentalTarget": "P388 leukemia ip, CD2F1 mice, survival T/C", "reportedValue": "100 % of control"}

Recorded T/C (molecule COc1cc(C(c2cc3c(cc2O)OCO3)N2CCN(C(c3ccc(O)c(OC)c3)c3cc4c(cc3O)OCO4)CC2)ccc1O (stereo not given) ): 89 % of control

Recorded T/C (molecule O=C(CC1(O)C(=O)Nc2ccccc21)c1ccc([N+](=O)[O-])cc1 (stereo not given) ): 102 % of control

---

- Tested on: P388 leukemia ip, CD2F1 mice, survival T/C
- assayInfo: NCI In Vivo Anticancer Drug Screen. Data for tumor model P388 Leukemia (intraperitoneal) in CD2F1 (CDF1) mice
- appliedConditions: endpoint: median survival time; dose: 60.0 mg/kg/injection; schedule: Q01DX005 (ip); vehicle: Klucel (hydroxypropylcellulose) (HPC); higher = longer survival
Toxic doses and inconclusive results are not listed.
Here, each record is paired with measured T/C data.

Example entries begin here.
{"molecule": "CCC1SC2=NCCN2C1(O)c1ccc(Cl)cc1 (stereo unspecified)", "T/C": "96 % of control"}
{"molecule": "C=C1C2CCC3C4(C)CCCC(C)(C(=O)O)C4CCC3(C2)C1O (stereo unspecified)", "T/C": "99 % of control"}
{"molecule": "CC(=O)CCC1=C(C)C(=O)C(=O)C(C)=C1O", "T/C": "96 % of control"}

Recorded T/C (molecule CC1([N+](=O)[O-])C(=O)C2(N3CCOCC3)CCCC2C1c1ccccc1 (stereo unspecified) ): 99 % of control

Recorded T/C (molecule ClC(Cl)(Cl)CN1CCCCC1Cc1ccccc1 (stereo unspecified) ): 100 % of control

Recorded T/C (molecule CCC[CH2][Sn]([Cl])([Cl])[CH2]CCC.c1ccc(-c2nnc(-c3ccccn3)nc2-c2ccccc2)cc1 ): 106 % of control

Recorded T/C (molecule O=C1CSC(c2ccsc2)N1c1nncs1 (stereo unspecified) ): 101 % of control

Recorded T/C (molecule N#Cc1ccc(OC(=O)Nc2ccc(Cl)c(Cl)c2)cc1 ): 118 % of control

Recorded T/C (molecule CC1C(=O)OC2C1CCC1(C)C=CC(=O)C3(C)OC213 (stereo unspecified) ): 100 % of control

Recorded T/C (molecule COc1cccc(C2c3cc4c(cc3OC(C)(O)C2C)OCO4)c1OC (stereo unspecified) ): 103 % of control

Recorded T/C (molecule O=C1NCC(COc2ccc([N+](=O)[O-])cc2)O1 (stereo unspecified) ): 109 % of control

---

- Test system: P388 leukemia ip, CD2F1 mice, survival T/C
- assayInfo: NCI In Vivo Anticancer Drug Screen. Data for tumor model P388 Leukemia (intraperitoneal) in CD2F1 (CDF1) mice
- appliedConditions: endpoint: median survival time; dose: 200.0 mg/kg/injection; schedule: Q01DX005 (ip); vehicle: Klucel (hydroxypropylcellulose) (HPC); higher = longer survival
Inconclusive results and toxic doses are left out.
outcomeMeasure: T/C

Example entries begin here.
{"compound": "Cc1ccccc1N=c1c2cnn(C)c2ncn1-c1ccccc1C", "T/C": "93 % of control"}
{"compound": "O=C(NC(Cc1ccc(I)cc1)C(=O)O)c1ccc(I)cc1 (stereo not drawn)", "T/C": "104 % of control"}
{"compound": "CC1(C)Cc2c([nH]c3ccccc3c2=O)-c2ccccc21", "T/C": "103 % of control"}
{"compound": "O=c1[nH]cnc2c1ncn2C1SC(CO)C(O)C1O (stereo not drawn)", "T/C": "101 % of control"}
{"compound": "COc1cccc(C2NC(c3cccc(OC)c3)C3CCCC2C3=O)c1 (stereo not drawn)", "T/C": "102 % of control"}

Recorded T/C (compound COc1cc(Br)c(/C=N/O)cc1OC ): 91 % of control

Recorded T/C (compound c1ccc2c(c1)ccc1c3ccccc3sc21 ): 103 % of control

Recorded T/C (compound N=C(N)c1ccc(N=Nc2ccc(O)c3c2ccc[n+]3[O-])cc1 ): 110 % of control

Recorded T/C (compound Cc1c2noc1CCCCCCCCCCC2 ): 102 % of control

Cited source for all entries: PubChem BioAssay AID330
